Exercise: for every item that follows, state its recorded HC50.
- System: rat erythrocytes
- ASSAY_DETAILS: Hemolysis assay
- Type: cell-based
- CONDITION_DETAILS: red cells of rat
- Description: The hemolysis assay was performed using rat erythrocytes in phosphate‐buffered saline (PBS), as reported by Mendes et al.^[ [45] ^] Animal studies were approved by the Laboratory Animal Resource Center of Gwangju Institute of Science and Technology. […] Aliquots (150 µL) of the supernatant were transferred to fresh 96‐well plates, and the absorbance of each well was measured at 540 nm using a microplate reader. […]
Square brackets hold non-standard residues; d marks the D form. Peptide text beside a SMILES is read from it. Gly(N(CH2)2(3-indolyl)) = O=C(O)CNCCc1c[nH]c2ccccc12; Nspe = C[C@H](NCC(=O)O)c1ccccc1; Nlys = NCCCCNCC(=O)O
Express your answer in µM, writing the number without its unit.

query: Look at this compound and give its reported HC50. C[C@@H](c1ccccc1)N(CC(=O)N(CCCCN)CC(=O)N(CC(=O)N(CC(=O)N(CCCCN)CC(=O)N(CC(=O)N(CC(=O)N(CCCCN)CC(N)=O)[C@@H](C)c1ccccc1)[C@@H](C)c1ccccc1)[C@@H](C)c1ccccc1)[C@@H](C)c1ccccc1)C(=O)CN(C(=O)CN(CCCCN)C(=O)CN(CCc1c[nH]c2ccccc12)C(=O)CNCCc1c[nH]c2ccccc12)[C@@H](C)c1ccccc1 [37-AcOH] (H-[Gly(N(CH2)2(3-indolyl))][Gly(N(CH2)2(3-indolyl))][Nlys][Nspe][Nspe][Nlys][Nspe][Nspe][Nlys][Nspe][Nspe][Nlys]-NH2)
result: 26.0

query: Look at this compound and give its reported HC50. C[C@@H](c1ccccc1)N(CC(=O)N(CCCCN)CC(=O)N(CC(=O)N(CC(=O)N(CCCCN)CC(=O)N(CC(=O)N(CC(=O)N(CCCCN)CC(N)=O)[C@@H](C)c1ccccc1)[C@@H](C)c1ccccc1)[C@@H](C)c1ccccc1)[C@@H](C)c1ccccc1)C(=O)CN(C(=O)CN(CCCCN)C(=O)CN(CCc1c[nH]c2ccccc12)C(=O)CNCCc1c[nH]c2ccccc12)[C@@H](C)c1ccccc1 [peptoid 37] (H-[Gly(N(CH2)2(3-indolyl))][Gly(N(CH2)2(3-indolyl))][Nlys][Nspe][Nspe][Nlys][Nspe][Nspe][Nlys][Nspe][Nspe][Nlys]-NH2)
result: 38.6
